Values from paper PMC9026148

# Assayed System: CYP-3A4 (Homo sapiens)
# Construct: tissue Bioduro, LLC (contract lab that ran the assay); host or cells: human liver microsomes
# Sequence (P08684 whole entry): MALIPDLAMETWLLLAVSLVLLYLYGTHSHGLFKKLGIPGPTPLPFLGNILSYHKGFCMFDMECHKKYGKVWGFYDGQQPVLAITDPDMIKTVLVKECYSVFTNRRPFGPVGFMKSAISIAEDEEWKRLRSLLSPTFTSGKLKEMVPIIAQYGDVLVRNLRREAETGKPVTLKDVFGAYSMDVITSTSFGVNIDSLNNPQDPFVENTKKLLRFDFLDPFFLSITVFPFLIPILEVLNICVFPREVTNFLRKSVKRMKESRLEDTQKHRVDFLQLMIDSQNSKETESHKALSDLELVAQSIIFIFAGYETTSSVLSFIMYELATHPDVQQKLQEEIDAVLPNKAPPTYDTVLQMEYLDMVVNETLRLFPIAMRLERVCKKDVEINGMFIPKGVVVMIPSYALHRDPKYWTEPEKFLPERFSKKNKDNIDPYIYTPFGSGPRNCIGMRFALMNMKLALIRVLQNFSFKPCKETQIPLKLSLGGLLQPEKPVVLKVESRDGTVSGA
# Assay Info: Time-dependent CYP-3A4 inhibition (midazolam turnover, human liver microsomes)
# Format: in vitro ADME
# Test Conditions: human, human liver microsomes, probe midazolam (2.5 µM); ratio IC50 5 min / 60 min pre-incubation
Result Type: IC50 shift
Could you keep your reply to the number by itself?

Prompt line: Find the recorded IC50 shift belonging to O=S(=O)(NC1CCCC(N2c3ccccc3CCc3ccccc32)C1O)c1ccc(OC(F)(F)F)cc1 (stereo not shown) and report it.
Response line: 2.4

* * *

# Assay Info: Microsome (oxidative metabolism) stability, mouse
# Assay type: in vitro ADME
# Test Conditions: liver microsomes, read-out: CL Mouse
The following compounds are listed with their measured microsomal CLint at 1 µM values.

Prompt line: Find the recorded microsomal CLint at 1 µM belonging to `O=S(=O)(N[C@H]1COC[C@@H](n2c3ccc(Cl)cc3c3cc(Cl)ccc32)[C@@H]1O)c1ccc(OC(F)(F)F)cc1` and report it.
Response line: < 5 µL/min/mg

Next:
Prompt line: Find the recorded microsomal CLint at 1 µM belonging to O=S(=O)(NC1CCCC(N2c3ccccc3CCc3ccccc32)C1O)c1ccc(OC(F)(F)F)cc1 (centres unmarked) and report it.
Response line: 234 µL/min/mg
